- assay.system: Beta-2 adrenergic receptor (Homo sapiens) (UniProt P07550)
- Sequence (P07550 whole entry, looked up): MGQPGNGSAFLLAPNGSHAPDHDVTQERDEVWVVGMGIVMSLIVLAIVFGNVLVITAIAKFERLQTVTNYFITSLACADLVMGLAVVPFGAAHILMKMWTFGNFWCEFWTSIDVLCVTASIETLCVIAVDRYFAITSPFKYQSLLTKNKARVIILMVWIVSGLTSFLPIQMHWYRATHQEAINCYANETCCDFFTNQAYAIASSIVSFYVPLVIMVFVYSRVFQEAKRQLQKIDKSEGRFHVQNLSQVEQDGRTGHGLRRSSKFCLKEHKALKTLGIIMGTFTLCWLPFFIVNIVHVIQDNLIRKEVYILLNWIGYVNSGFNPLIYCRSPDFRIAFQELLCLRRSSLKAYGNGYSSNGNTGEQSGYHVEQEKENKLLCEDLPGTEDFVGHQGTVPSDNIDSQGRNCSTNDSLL
- experimental.protocol: Adrenergic beta2 receptor (ADRB2) small molecule antagonists, cell-based qHTS assay (AID 1963592); also: potency is read from the fitted curve at half-maximal effect; nearly all actives have a fitted effect of over 50% in size
- assay.context: CHO-ADRB2 cells, isoproterenol-stimulated cAMP HTRF ratio, 0.5 h; series mostly up to 92.4 µM
Records with an inconclusive call do not appear. Activity calls are given as the source filed them. Calls follow the shape of the full dose curve.
experimental.endpoint: Potency

Per the record, Cc1cc(O)c(C(C)(C)C)cc1Sc1cc(C(C)(C)C)c(O)cc1C has Potency of 27.3 µM (active)

Per the record, O=C(Nc1ccccc1)Nc1ccccc1 has Potency of 68.9 µM (active)

Per the record, OC1(c2ccc(Cl)c(C(F)(F)F)c2)CCN(CCCC(c2ccc(F)cc2)c2ccc(F)cc2)CC1 has Potency of 26.6 µM (active)

Per the record, COc1cc(N)c(Cl)cc1C(=O)NC1CCN(CCCOc2ccc(F)cc2)CC1OC (stereo not drawn) has Potency of 23.7 µM (active)

Per the record, COc1ccccc1OCC(O)CN1CCN(CC(=O)Nc2c(C)cccc2C)CC1 (stereo not drawn) has Potency of 11.9 µM (active)

Others:
Per the record, O[C@@H](CNC[C@H](O)[C@H]1CCc2cc(F)ccc2O1)[C@@H]1CCc2cc(F)ccc2O1 has Potency of 0.15 µM (active)

Per the record, COc1ccccc1N1CCN(CCCNc2cc(=O)n(C)c(=O)n2C)CC1 has Potency of 13.3 µM (active)

Per the record, COc1ccccc1NC(=O)c1cc2ccccc2cc1O has Potency of 54.5 µM (active)

###

- assay.system: Muscarinic acetylcholine receptor M1 (Homo sapiens) (UniProt P11229)
- Sequence (P11229 whole entry, looked up): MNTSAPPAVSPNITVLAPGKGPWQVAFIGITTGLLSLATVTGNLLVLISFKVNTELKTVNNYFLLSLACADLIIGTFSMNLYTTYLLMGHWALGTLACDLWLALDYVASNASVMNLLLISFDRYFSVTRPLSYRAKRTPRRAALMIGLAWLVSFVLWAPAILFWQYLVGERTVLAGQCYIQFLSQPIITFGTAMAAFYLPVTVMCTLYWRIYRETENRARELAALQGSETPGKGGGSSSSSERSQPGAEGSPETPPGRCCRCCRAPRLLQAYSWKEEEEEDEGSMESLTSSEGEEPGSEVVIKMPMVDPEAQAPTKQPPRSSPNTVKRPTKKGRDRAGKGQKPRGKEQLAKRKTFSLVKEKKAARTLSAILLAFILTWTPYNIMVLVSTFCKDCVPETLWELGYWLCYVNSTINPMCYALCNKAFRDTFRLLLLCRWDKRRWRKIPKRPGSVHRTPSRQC
- experimental.protocol: Cholinergic receptor muscarinic 1 (CHRM1) small molecule agonists, cell-based qHTS assay (AID 1963589); also: % is scaled to controls: 0 for no effect and ±100 for the full control effect; nearly all actives have a fitted effect of over 35% in size
- assay.context: CHRM1-CHO cells, agonist mode, calcium flux fluorescence; series mostly up to 76.8 µM
Activity calls are given as the source filed them. The call rests on the fitted dose curve.
experimental.endpoint: activation

These recorded examples may help you get a feel for the data.
Per the record, CN=C(NC#N)NCCSCc1csc(N=C(N)N)n1 has activation of inactive

Per the record, CO[C@@H]1[C@H](OC(=O)/C=C/C=C/C=C/C=C/C(=O)O)CC[C@]2(CO2)[C@H]1[C@@]1(C)O[C@@H]1CC=C(C)C has activation of inactive

Per the record, CCCCCCCCCCCC(C)=O has activation of inactive

Per the record, O=C(CCCCCCCCc1cccnc1)N1CCC(C=C(c2ccccc2)c2ccccc2)CC1 has activation of inactive

Per the record, CCCCC/C=C/CC(=O)OC has activation of inactive

Others:
Per the record, CCC(CC)C(=O)O has activation of inactive

Per the record, O=C(O)c1cccc(N(Cc2cccnc2)c2ccc(OC(F)F)c(OC(F)F)c2)c1 has activation of inactive

Per the record, Nc1ccccc1O has activation of inactive

Per the record, Cn1cccc1 has activation of inactive

Per the record, CSc1cnc(C)cn1 has activation of inactive

Per the record, COc1ccc(CCN(C)CCCC(C#N)(c2cc(OC)c(OC)c(OC)c2)C(C)C)cc1OC (configuration not stated) has activation of inactive

Per the record, C[n+]1cc2c3c(ccc2c2ccc4cc5c(cc4c21)OCO5)OCO3 has activation of 0.0411% [at 15.8 µM] (inactive)

###

- assay.system: Muscarinic acetylcholine receptor M1 (Homo sapiens) (UniProt P11229)
- experimental.protocol: Cholinergic receptor muscarinic 1 (CHRM1) small molecule antagonists, cell-based qHTS assay (AID 1963588); also: % is scaled to controls: 0 for no effect and ±100 for the full control effect; nearly all actives have a fitted effect of over 40% in size
- assay.context: CHRM1-CHO antagonist mode, calcium flux fluorescence; series mostly up to 61.5 µM
Records with an inconclusive call do not appear. Activity calls are given as the source filed them. The call rests on the fitted dose curve.
experimental.endpoint: outcome

Per the record, CCC1CCC(CCC(=O)O)C1 (centres undefined) has outcome of inactive

Per the record, CC(C)(C)OC(=O)c1ccccc1C(=O)O has outcome of inactive

Per the record, CCCCCCCCCCCC(C)=O has outcome of inactive

Per the record, OC[C@H]1O[C@@H](O[C@@H]2[C@@H](CO)O[C@](O)(CO)[C@H]2O)[C@H](O)[C@@H](O)[C@H]1O has outcome of inactive

Others:
Per the record, CCN(CC)CCNC(=O)COc1ccc(Cl)cc1 has outcome of inactive

###

Documented Potency across a set of molecules
- assay.system: D(2) dopamine receptor (Homo sapiens) (UniProt P14416)
- Sequence (P14416 whole entry, looked up): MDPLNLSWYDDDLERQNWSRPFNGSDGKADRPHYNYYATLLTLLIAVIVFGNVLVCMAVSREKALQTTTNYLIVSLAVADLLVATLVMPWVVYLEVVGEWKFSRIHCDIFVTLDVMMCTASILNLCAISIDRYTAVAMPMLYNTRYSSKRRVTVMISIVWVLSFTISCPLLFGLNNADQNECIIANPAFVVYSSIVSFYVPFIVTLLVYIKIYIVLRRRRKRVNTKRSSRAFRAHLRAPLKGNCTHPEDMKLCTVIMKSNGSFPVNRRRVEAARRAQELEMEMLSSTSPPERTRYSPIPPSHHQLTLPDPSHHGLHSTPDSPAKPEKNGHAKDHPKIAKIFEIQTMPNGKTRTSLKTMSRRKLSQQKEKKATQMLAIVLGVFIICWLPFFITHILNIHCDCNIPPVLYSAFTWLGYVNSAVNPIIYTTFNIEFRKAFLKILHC
- experimental.protocol: Dopamine D2 receptor (DRD2) small molecule antagonists, cell-based qHTS assay (AID 1963595); also: potency is read from the fitted curve at half-maximal effect
- assay.context: HEK293-DRD2 cAMP HTRF antagonist mode; series mostly up to 92.4 µM
Records with an inconclusive call do not appear. The source made the active and inactive calls. Calls come from the whole dose curve; as a rule, active = well fitted inhibition curve with a large enough effect in the signal ratio in the repeat runs, with a control signal flat; inconclusive = weak or mixed curves, or effect the other way; inactive = flat fitted curve, though single readings scatter; the % refers to the signal ratio.

Measured Potency for this entry CCCCCCCCCCCCc1ccc(O)cc1 on D(2) dopamine receptor (Homo sapiens) (UniProt P14416): 61.1 µM (active)

Measured Potency for this entry CCCCCCCCCCCC[N+](C)(C)CCCCCCCCCCCC on D(2) dopamine receptor (Homo sapiens) (UniProt P14416): 43.3 µM (active)

Others:
Measured Potency for this entry CCc1cc(Cl)c(OC)c(C(=O)NC[C@@H]2CCCN2CC)c1O on D(2) dopamine receptor (Homo sapiens) (UniProt P14416): 0.0033 µM (active)

Measured Potency for this entry CCCC(c1cc(C(C)(C)C)c(O)cc1C)c1cc(C(C)(C)C)c(O)cc1C on D(2) dopamine receptor (Homo sapiens) (UniProt P14416): 24.6 µM (active)

###

- experimental.protocol: Nuclear factor erythroid 2-related factor 2/antioxidant responsive element (Nrf2/ARE) small molecule agonists: qHTS cell viability counter screen in human keratinocytes (AID 1919968); also: nearly all actives have a fitted effect of over 55% in size
- assay.context: KeratinoSens HaCaT ARE cells viability, CellTiter-Fluor, 24 h; series mostly up to 92.4 µM
Records with an inconclusive call do not appear. Activity calls are given as the source filed them. The call rests on the fitted dose curve; in most records, active means well fitted cell-killing curve with a large enough effect in the repeat runs; inconclusive means weak or mixed curves, or effect the other way; inactive means flat fitted curve, though single readings scatter.
Give one outcome, nothing more. List: active, inactive

Q: Test call, this molecule: C[C@H](N)[C@H](O)c1cccc(O)c1
A: inactive

Q: Test call, this molecule: CCCCCCCCCCCCCCCCCCN(C)C
A: inactive

Q: Test call, this molecule: C1=CCC(c2ccccc2)CC1 (configuration not stated)
A: inactive

Q: Test call, this molecule: CC(C)OC(=O)c1ccccc1
A: inactive

Q: Test call, this molecule: NC12CC3CC(CC(C3)C1)C2
A: inactive

Q: Test call, this molecule: O=C(O)CCN(C1(C(=O)NO)CCCC1)S(=O)(=O)c1ccc(Oc2ccc(F)cc2)cc1
A: inactive

Others:
Q: Test call, this molecule: CCN(CC)c1ccc(N)cc1
A: active

###

- experimental.protocol: G protein-coupled receptor (GPCR) small molecule agonists, calcium flux assay: HEK293 wild type cell line counter screen (AID 1920065); also: % is scaled to controls: 0 for no effect and ±100 for the full control effect
- assay.context: HEK293 WT calcium flux, fluorescence, agonist mode; series mostly up to 57.6 µM
Calls of active or inactive are those of the source. Calls follow the shape of the full dose curve.
experimental.endpoint: activation

These recorded examples may help you get a feel for the data.
Per the record, CCc1nnc(NS(=O)(=O)c2ccc(N)cc2)s1 has activation of inactive

Per the record, CC(C)C(O)C(C)(C)CO (stereo not drawn) has activation of inactive

Per the record, COCC(=O)Nc1c(I)c(C(=O)NCC(O)CO)c(I)c(C(=O)N(C)CC(O)CO)c1I (stereo not drawn) has activation of inactive

Per the record, CCOC(CN1CCN(CC(C)C(=O)c2ccccc2)CC1)c1ccccc1 (stereo not drawn) has activation of 1.41% [at 11.8 µM] (inactive)

Per the record, O=C(O)CCNC(=O)c1ccccc1 has activation of inactive

Others:
Per the record, CCCCC(CC)CN1C(=O)C2C3C=CC(C3)C2C1=O (stereo not drawn) has activation of inactive

Per the record, CCCCCCCCCCCCOC(=O)c1ccc(O)cc1 has activation of inactive

Per the record, O=C(O)Cc1csc(-c2ccc(Cl)cc2)n1 has activation of inactive

Per the record, Cc1nc(C)nc(N2C[C@@H](C)N(c3ccnc([C@@H](C)O)n3)[C@@H](C)C2)n1 has activation of inactive

Per the record, CC(C)(C)N(CCO)CCO has activation of inactive

Per the record, CSSc1ccoc1C has activation of inactive

Per the record, Cc1ccc(N)nc1 has activation of inactive

Per the record, O=C(NCCCN1CCOCC1)c1ccc(Cl)cc1 has activation of inactive

###

- experimental.protocol: Nuclear factor erythroid 2-related factor 2/antioxidant responsive element (Nrf2/ARE) small molecule agonists: luciferase reporter gene qHTS assay in human keratinocytes (AID 1919969); also: % is scaled to controls: 0 for no effect and ±100 for the full control effect; nearly all actives have a fitted effect of over 35% in size
- assay.context: KeratinoSens HaCaT ARE-luciferase, luminescence, 24 h; series mostly up to 92.4 µM
Records with an inconclusive call do not appear. Activity calls are given as the source filed them. Calls come from the whole dose curve.
Documented activity, positive = activation across a set of molecules

Per the record, CN1CCN(c2c(F)cc3c(=O)c(C(=O)O)cn4c3c2OCN4C)CC1 has activity, positive = activation of -3.8% [at 19 µM] (inactive)

Others:
Per the record, C[C@@H](O)[C@H](N)C(=O)O has activity, positive = activation of 1.15% [at 19 µM] (inactive)

Per the record, CCCCCCCCCCCCCCCCCO has activity, positive = activation of -1.74% [at 19 µM] (inactive)

Per the record, O=S(O)(O)=S has activity, positive = activation of -3.55% [at 8.39 µM] (inactive)

Per the record, C=CC(=C)CC/C=C(\C)CCC=C(C)C has activity, positive = activation of 7.55% [at 19 µM] (inactive)

Per the record, O=C(CCN1CCN2CCCC2C1)N1c2ccccc2Sc2ccc(Cl)cc21 (stereo not drawn) has activity, positive = activation of -8.3% [at 19 µM] (inactive)

Origin of measurements: PubChem BioAssay (Tox21)
